TESTED_ON: T1, cyno FcRn/b2M (cyno, UniProt Q8SPV9 24-297; Q8SPW0 21-119, biotinylated)
T1 construct: bought recombinant biotinylated protein (Immunitrack ITF05 or ACRO FCM-C82W5); also called cFcRn; cFcRn/cb2M
TEST_DESCRIPTION: SPR pH 7.4;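 also: surface plasmon resonance kinetics, periplasmic extracts diluted 1:10 flowed over immobilized target at 25 °C, 120 s association then 600–3600 s dissociation, buffer with 150 mM NaCl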
TEST_READOUT: koff (s⁻¹)
Field format: number, assumed s⁻¹, no unit text.

Input: Consider the binder shown here: T0263018B11 S56Q (VHH, name in Kabat numbering, FLAG3-His6 tagged) VHH: EVQLVESGGGVVQPGGSLRLSCAASGFTFSSYAMYWVRQAPGKGLEWVSAISSGGGQTDYADSVKGRFTISRDNSKNTLYLQMNSLRPEDTALYYCAADTLYTSLTWYSYWGQGTLVTVSS What is its recorded koff?
Output: 0.068

Input: Endpoint output: koff of T0263018B11 S101T (VHH, name in Kabat numbering, FLAG3-His6 tagged) VHH: EVQLVESGGGVVQPGGSLRLSCAASGFTFSSYAMYWVRQAPGKGLEWVSAISSGGGSTDYADSVKGRFTISRDNSKNTLYLQMNSLRPEDTALYYCAADTLYTSLTWYTYWGQGTLVTVSS . Value?
Output: 0.019

Input: Find the recorded koff belonging to T0263018B11 F29S (VHH, name in Kabat numbering, FLAG3-His6 tagged) VHH: EVQLVESGGGVVQPGGSLRLSCAASGFTSSSYAMYWVRQAPGKGLEWVSAISSGGGSTDYADSVKGRFTISRDNSKNTLYLQMNSLRPEDTALYYCAADTLYTSLTWYSYWGQGTLVTVSS and report it.
Output: 0.059

Input: Endpoint output: koff of T0263018B11 T28N (VHH, name in Kabat numbering, FLAG3-His6 tagged) VHH: EVQLVESGGGVVQPGGSLRLSCAASGFNFSSYAMYWVRQAPGKGLEWVSAISSGGGSTDYADSVKGRFTISRDNSKNTLYLQMNSLRPEDTALYYCAADTLYTSLTWYSYWGQGTLVTVSS . Value?
Output: 0.069

Input: Need koff of T0263018B11 S52P (VHH, name in Kabat numbering, FLAG3-His6 tagged) VHH: EVQLVESGGGVVQPGGSLRLSCAASGFTFSSYAMYWVRQAPGKGLEWVSAIPSGGGSTDYADSVKGRFTISRDNSKNTLYLQMNSLRPEDTALYYCAADTLYTSLTWYSYWGQGTLVTVSS , thanks.
Output: 0.048

Input: Fill blank: measured koff of the binder T0263018B11 W100cQ (VHH, name in Kabat numbering, FLAG3-His6 tagged) VHH: EVQLVESGGGVVQPGGSLRLSCAASGFTFSSYAMYWVRQAPGKGLEWVSAISSGGGSTDYADSVKGRFTISRDNSKNTLYLQMNSLRPEDTALYYCAADTLYTSLTQYSYWGQGTLVTVSS is ____.
Output: 0.5

Input: So what does the record say about koff for T0263018B11 G26N (VHH, name in Kabat numbering, FLAG3-His6 tagged) VHH: EVQLVESGGGVVQPGGSLRLSCAASNFTFSSYAMYWVRQAPGKGLEWVSAISSGGGSTDYADSVKGRFTISRDNSKNTLYLQMNSLRPEDTALYYCAADTLYTSLTWYSYWGQGTLVTVSS ?
Output: 0.032

Input: GET /values?readout=koff&item= T0263018B11 S30K (VHH, name in Kabat numbering, FLAG3-His6 tagged) VHH: EVQLVESGGGVVQPGGSLRLSCAASGFTFKSYAMYWVRQAPGKGLEWVSAISSGGGSTDYADSVKGRFTISRDNSKNTLYLQMNSLRPEDTALYYCAADTLYTSLTWYSYWGQGTLVTVSS
Output: 0.055
